System: foxtail, giant (giant foxtail, Setaria faberii)
methodNotes: Test A postemergence, visual injury rating 0-100
Assay type: in vivo
experimentalSetup: 500 g ai/ha, 0 to 100 scale
# Lookup of reported Foxtail, Giant plant response rating keyed by entry
I'd appreciate a reply containing only the number, no unit.

CC1=[N+]([O-])C(C(=O)Nc2cccc(F)c2F)C(c2cc(F)c(F)c(F)c2)C1 (stereo not shown) | 90
CC1=[N+]([O-])C(C(=O)Nc2cccc(F)c2F)C(c2ccc(=O)n(Cc3ccc(Cl)cc3)c2)C1 (racemic) | 0
CC1=[N+]([O-])C(C(=O)Nc2cccc(F)c2F)C(c2ccccc2)C1 (stereo not shown) | 90
CC1=[N+]([O-])C(C(=O)Nc2cccc(F)c2F)C(c2cc(F)c(C(F)(F)F)c(F)c2)C1 (racemic) | 90
CC1=[N+]([O-])[C@H](C(=O)Nc2cccc(F)c2F)[C@@H](c2ccc(C(F)(F)F)c(F)c2)C1 (relative stereo) | 90

Query :: Request the reported Foxtail, Giant plant response rating associated with `CC1=[N+]([O-])[C@@H](C(=O)Nc2cccc(F)c2F)[C@H](c2cccc(Oc3ccc(F)cn3)c2)C1`
Result :: 70

Query :: Then CC(C)C1=[N+]([O-])C(C(=O)Nc2cccc(F)c2F)C(c2ccc(C(F)(F)F)cc2)C1 (racemic) ?
Result :: 0

---

Tested on: ragweed (common ragweed, Ambrosia elatior)
methodNotes: Test A postemergence, visual injury rating 0-100
Format: in vivo
experimentalSetup: 500 g ai/ha, 0 to 100 scale
For each record, check the reported Ragweed plant response rating: if it is below 40 write yes, else write no.

COc1ccc(C2CC(C)=[N+]([O-])C2C(=O)Nc2cccc(F)c2F)cc1C(F)(F)F (racemic) | yes
CC1=[N+]([O-])[C@H](C(=O)Nc2cccc(F)c2F)[C@@H](c2ccc(C)cc2)C1 (relative stereo) | no
CC1=[N+]([O-])C(C(=O)Nc2cccc(F)c2F)C(c2cccc3c2CCC3)C1 (racemic) | no
CC1=[N+]([O-])C(C(=O)Nc2cccc(F)c2F)C(c2ccc(C(F)(F)F)cc2F)C1 (centres unmarked) | no
CCc1cc(CC)cc(C2CC(C)=[N+]([O-])C2C(=O)Nc2cccc(F)c2F)c1 (racemic) | yes

Query :: hey, is Ragweed plant response rating for CC(C)C1=[N+]([O-])C(C(=O)Nc2cccc(F)c2F)C(c2ccc(C(F)(F)F)cc2)C1 (racemic) lower than 40 or not?
Result :: yes

Query :: Then CC1=[N+]([O-])C(C(=O)Nc2cccc(F)c2F)C(c2ccc(Br)cc2)C1 (racemic) ?
Result :: yes

Query :: Then CC1=[N+]([O-])C(C(=O)Nc2cccc(F)c2F)C(c2cccc(Cl)c2)C1 (racemic) ?
Result :: no

Query :: Then O=C(Nc1cccc(F)c1F)C1C(c2ccccc2)CC(C(F)(F)F)=[N+]1[O-] (racemic) ?
Result :: yes

Query :: Then COc1cccc(C2CC(C)=[N+]([O-])C2C(=O)Nc2cccc(F)c2F)n1 (racemic) ?
Result :: yes

Query :: Then CC1=[N+]([O-])C(C(=O)Nc2cccc(F)c2F)C(c2cc(C)cc(C)c2)C1 (racemic) ?
Result :: no

Query :: Then COc1cc(OC)cc(C2CC(C)=[N+]([O-])C2C(=O)Nc2cccc(F)c2F)c1 (centres unmarked) ?
Result :: yes

Query :: Then CC1=[N+]([O-])C(C(=O)Nc2cccc(F)c2F)C(c2ccc(Br)cn2)C1 (racemic) ?
Result :: yes

Query :: Then CC1=[N+]([O-])C(C(=O)Nc2cccc(F)c2F)C(c2ccc(Cl)c(F)c2)C1 (racemic) ?
Result :: no
